Each recorded value in this set is attributed to patent US5601801A.

- Test: Biodistribution of ^131 I-3 in CD-1 Mice, normal and blocked with lisinopril
- Assay type: in vivo
- Run Conditions: mouse, contents, iv, 1 uCi, 0.5 hours, blocked (lisinopril); read-out: Biodistribution, Contents

Compound: O=C(NCCCC[C@H](N[C@@H](CCc1ccccc1)C(=O)O)C(=O)N1CCC[C@H]1C(=O)O)c1cccc([131I])c1 [^131 I-3, Lisinopril N^ε -radioiodobezamide]
tissue uptake at 0.5 h (%ID/g): 17.9

----------
- Test: Biodistribution of ^131 I-3 in CD-1 Mice, normal and blocked with lisinopril
- Type: in vivo
- Run Conditions: mouse, contents, iv, 1 uCi, 6.0 hours, blocked (lisinopril); read-out: Biodistribution, Contents

Molecule: O=C(NCCCC[C@H](N[C@@H](CCc1ccccc1)C(=O)O)C(=O)N1CCC[C@H]1C(=O)O)c1cccc([131I])c1 [^131 I-3, Lisinopril N^ε -radioiodobezamide]
Value Unit: %ID/g
tissue uptake at 6 h: 48.9
